- SYSTEM_NAME: T1, hErbB3.hFc (soluble dimeric human ErbB3 extracellular domain fused to human Fc) (human)
- T1 construct: called dimeric
- ASSAY_METHOD_TEXT: SPR (Biacore), 25 C, mAb capture format
RECORDED_ENDPOINT: T½
The answer consists of two parts: a number and, after it, its unit.

Param item = H1M1819N (antibody, V domains shown, Hybridoma chimeric antibody: human variable domains, mouse constant domains (H1M prefix, mouse Fc)) VH: EVQLVESGGGVVRPGGSLRLSCAASGFTFDDYAMHWVRQAPGKGLEWVAGISWNSGSIDYADSVKGRFTISRDNAKNSLYLQMNSLRAGDTALYYCAKDILDLDYYGLDVWGQGTTVTVSS VL: DIQMTQSPSSLSASVGDRVTITCRASQDISSYLAWYQQKPGKVPNLLIYDASSLQSGVPSRFSGSGSGTDFTLTLSSLQPEDFASYYCQNYNSAPYTFGQGTKLEIK ; retrieve measured T½.
3.27 h

Param item = H2M1829N (antibody, V domains shown, Hybridoma chimeric antibody: human variable domains, mouse IgG2 Fc (H2M prefix)) VH: EVQLVESGGGVVRPGGSLRLSCVASGFTFDDYGMSWVRQAPGKGLECVSGINWNGGSTDYADSVKGRFTISRDNAKNSLYLQMNSLRAEDTALYHCARDGGDWDYFDLWGRGTLVTVSS VL: EILMTQSPATLSVSPGERATLSCRASQSVSSNLAWYQQKPGQAPRLLIYGASTRATGIPARFSGSGSGTEFTLTISSLQSEDFAIYYCQEYNDWPLTFGGGTKVEIK ; retrieve measured T½.
22.4 h

Param item = H2M1937N (antibody, V domains shown, Hybridoma chimeric antibody: human variable domains, mouse IgG2 Fc (H2M prefix)) VH: QVQLQQWDAGLLKPSETLSLTCAVYGGSFSSYYWSWIRQPPGKGLEWIGEINHRGSTNYNPSLKSRVTISVDTSKNQFSLKLRSVTAADTAVYYCARGGVAARPDWHFFDYWGQGTLVTVSS VL: DIQMTQSPSSLSASVGDRVTITCRASQVIRNDLGWFQQRPGKAPKRLIYAASSLQSEVPSRFSGSGSGTEFTLTITSLQPEDFATYYCLQHNSYPLTFGQGTRLEIK ; retrieve measured T½.
15.1 h
